Target: T1, 人NKp30-his蛋白(KACTUS;Cat:NKP-HM430) (human, UniProt O14931 19-135)
T1 construct: Bought protein; Molar concentration was calculated with 35 kDa; also called 重组人NKp30-his; 人NKp30蛋白; not shown: his tag
T1 sequence (looked up): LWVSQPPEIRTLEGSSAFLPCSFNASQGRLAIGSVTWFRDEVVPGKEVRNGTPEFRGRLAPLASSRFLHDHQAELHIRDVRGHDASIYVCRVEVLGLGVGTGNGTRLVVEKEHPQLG
Assay: BLI (Octet Red96e), antibody captured on sensor, 100 nM human NKp30-his in solution, 1:1 model
Readout Label: kon (M⁻¹ s⁻¹)
// units = M⁻¹ s⁻¹; emit number, no label

Worked set:
{"columns": ["Binder", "Unit Info", "Measured Result"],
 "data": [
  ["抗体5 (antibody, V domains shown, Mouse hybridoma monoclonal antibody purified on Protein A; also called 鼠源抗NKp30抗体; NKp30 mAb) VH: VLILKESGGGLVKPGGSLKLSCAASGFAFSSYDMSWVRQTPEKRLEWVATISSGGSYTYYPDSVKGRFTISRDNARNTLYLQMSSLRSEDTALYYCARHFGDHDGYVMDYWGQGTSVIVSS VL: DIVMTQSPSSLAMSLGQKVTMSCKSSQSLLNSSNQKSNLAWYQQKPGQSPKLLVYFASTRESGVPDRFIGSGSGTDFSLTIRSVQAEDLADYFCQQHYSTPFTFGSGTKLEIK", "M⁻¹ s⁻¹", 673000],
  ["抗体4 (antibody, V domains shown, Mouse hybridoma monoclonal antibody purified on Protein A; also called 鼠源抗NKp30抗体; NKp30 mAb) VH: EVQLVESGGGLVKPGGSLKLSCAASGFTFSDYGMSWIRQTPEKRLEWVASISSGGTYTYYPDSVKGRFTISRDSAKNTLYLQMNSLRSEDTAMYYCARRDGYYSVEYWGQGTSVTVSS VL: QIVLTQSPAIMSASPGGEVTMTCSASSSVSFMHWYQQKSGTSPKRWIFDTSKLASGVPTRFSGSGSGTSYSLTISSMEAEDAATYYCQQWTTNPPTFGGGTKLEIK", "M⁻¹ s⁻¹", 399000],
  ["抗体2 (antibody, V domains shown, Mouse hybridoma monoclonal antibody purified on Protein A; also called 鼠源抗NKp30抗体; NKp30 mAb) VH: EVQLQQFGAELVKPGASVKISCKASGYTFTDYNMDWVKQSHGKSLEWIAYINPNYEITTYNQKFKGKATLTVDKSSSTAYMELRSLTSEDTAVYYCARGRGGYDPAMDYWGQGTSVTVSS VL: SIVMTQTPKFLLVSAGDRVTITCKASQSVSNDVTWSQQKPGQSPKLLIYYASNRYTGVPDRFTGSGYGTDFTFTISTVQAEDLAVYLCQQDNSTPPTFGAGTKLELK", "M⁻¹ s⁻¹", "1.08e+06"],
  ["抗体3 (antibody, V domains shown, Mouse hybridoma monoclonal antibody purified on Protein A; also called 鼠源抗NKp30抗体; NKp30 mAb) VH: QGQLQQSGAEVMKPGASVKISCKANGHTFGSYWIEWIKQRPGHGLEWIGEILPGSGSKKYNEKFEGKATFTEETSSNTAYMELTSLTSEDSAVYYCSRGGYYGSRFAYWGQGTLVTVSA VL: DVVLTQTPLSLPVNIGDQASISCKSTKSLLNSDGFTYLDWYLQKPGQSPQLLIYLVSNRFSGVPDRFSGSGSGTDFTLKISRVEAEDLGVYYCFQSNYLPFTFGSGTKLEIK", "M⁻¹ s⁻¹", 959000],
  ["抗体6 (antibody, V domains shown, Mouse hybridoma monoclonal antibody purified on Protein A; also called 鼠源抗NKp30抗体; NKp30 mAb) VH: QVQLQQSGAELVRPGVSVKISCKGSGYTFTDYAMHWVKQSHAKSLEWIGIISTYYGDASYNQKFKGKATMTVDKSSSTAYMELARLTSEDSAIYYCARDYDNRYAAMDYWGQGTSVTVSS VL: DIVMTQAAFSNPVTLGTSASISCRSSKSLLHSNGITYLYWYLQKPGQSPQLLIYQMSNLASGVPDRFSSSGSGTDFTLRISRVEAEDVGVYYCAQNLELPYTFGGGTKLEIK", "M⁻¹ s⁻¹", "1.08e+06"]
]}

Please look at the following binder next.
Request: Sample 抗体1 (antibody, V domains shown, Mouse hybridoma monoclonal antibody purified on Protein A; also called 鼠源抗NKp30抗体; NKp30 mAb) VH: QVQLQQPGAELVKPGASVKLSCKASGYTFTSYWMEWVKLRPGQGFDWIGEINPSNGGTNYNEKFKRKAILTVDKSSSAAYMQLSGLTSEDSAVYYCTIGGDYAWFAYWGQGTLVTVSA VL: DIKMTQSPSSMYASLGERVTITCKASQDIKSYLSWYQQKPWKSPKTLIFYATSLADGVPSRFSASGSGQDYSLTISSLESDDTATYYCLQHGESPYTFGGGTKLEIK — what was its kon?
Response: 1.61e+06

Where do the numbers come from? From patent CN115124620A.
